The entries below are paired with their reported microsomal CLint at 1 μM.
experiment: Microsomal stability assay, mouse liver microsomes (MLM); type: in vitro ADME; conditions: 0.5 mg/mL protein, 1 μM substrate, 37° C.
REPORTED_PROPERTY: microsomal CLint at 1 μM (µL/min/mg)

| COMPOUND | REPORTED_PROPERTY | UNIT_ANNOTATION | RESULT_VALUE |
| --- | --- | --- | --- |
| O=C(Cn1ccnc1)Nc1cc(Oc2ccc3c(c2)CC(c2nc(-c4ccccc4)c[nH]2)CO3)ccn1 (stereo not shown) | microsomal CLint at 1 μM | µL/min/mg | 29.3 |
| CCc1cc(-c2c[nH]c(C3COc4ccc(Oc5ccnc6c5CCC(=O)N6)cc4C3)n2)ccn1 (stereo not shown) | microsomal CLint at 1 μM | µL/min/mg | 40 |
| Cc1cc(-c2c[nH]c(C3COc4ccc(Oc5ccnc6c5CCC(=O)N6)cc4C3)n2)n(C(C)C)n1 (stereo not shown) | microsomal CLint at 1 μM | µL/min/mg | 55.5 |
| O=C(Cn1cncn1)Nc1cc(Oc2ccc3c(c2)CC(c2nc(-c4ccccc4)c[nH]2)CO3)ccn1 (stereo not shown) | microsomal CLint at 1 μM | µL/min/mg | 95.2 |
| CN1CCN(CC(=O)Nc2cc(Oc3ccc4c(c3)CC(c3nc(-c5ccccc5)c[nH]3)CO4)ccn2)CC1 (stereo not shown) | microsomal CLint at 1 μM | µL/min/mg | 89.7 |
| O=C(Nc1cc(Oc2ccc3c(c2)CC(c2nc(-c4ccccc4)c[nH]2)CO3)ncn1)C1CC1 (stereo not shown) | microsomal CLint at 1 μM | µL/min/mg | 161 |
| O=C1CCc2c(Oc3ccc4c(c3)CC(c3nc(-c5ccnc(C(F)F)c5)c[nH]3)CO4)ccnc2N1 (stereo not shown) | microsomal CLint at 1 μM | µL/min/mg | 15.2 |

* * *

experiment: FeSSIF solubility assay; type: physicochemical; details: fed state simulated intestinal fluid (FeSSIF), thermodynamic from solid, pH 5 acetate buffer, 37° C., read-out: FESSIF Sol
REPORTED_PROPERTY: solubility thermodynamic at 24 h (µg/mL)

| COMPOUND | UNIT_ANNOTATION | READING_QUALIFIER | RESULT_VALUE |
| --- | --- | --- | --- |
| CN1CCN(CC(=O)Nc2cc(Oc3ccc4c(c3)CC(c3nc(-c5ccccc5)c[nH]3)CO4)ccn2)CC1 (stereo not shown) [Compound 146] | µg/mL | = | 404 |
| O=C1CCc2c(Oc3ccc4c(c3)CC(c3nc(C5CCOCC5)c[nH]3)CO4)ccnc2N1 (stereo not shown) [Compound 132] | µg/mL | = | 41.9 |
| Cc1cc(-c2ccc3[nH]c(N4CCc5ccc(Oc6ccnc7c6CCC(=O)N7)cc5C4)nc3c2)n(C)n1 [Compound 163] | µg/mL | < | 1.3 |
| O=C1CCc2c(Oc3ccc4c(c3)CN(c3nc5ccccc5[nH]3)CC4)ccnc2N1 [Compound 159] | µg/mL | < | 1 |
| O=C1CCc2c(Oc3ccc4c(c3)CC(c3nc(-c5ccnc(C6CC6)c5)c[nH]3)CO4)ccnc2N1 (stereo not shown) [Compound 119] | µg/mL | < | 1.2 |
| O=C(Nc1nccc(Oc2ccc3c(c2)CC(c2nc(-c4ccccc4)c[nH]2)CO3)n1)C1CC1 (stereo not shown) [Compound 148] | µg/mL | = | 104 |
| CC1CC1C(=O)Nc1cc(Oc2ccc3c(c2)CC(c2nc(-c4ccccc4)c[nH]2)CO3)ccn1 (stereo not shown) [Compound 157] | µg/mL | = | 116 |

* * *

assay: FeSSIF solubility assay; type: physicochemical; details: fed state simulated intestinal fluid (FeSSIF), thermodynamic from solid, pH 5 acetate buffer, 37° C., read-out: FESSIF Sol
Response key: true means solubility thermodynamic at 24 h >= 40 µg/mL; false means solubility thermodynamic at 24 h < 40 µg/mL.

| COMPOUND | CAT |
| --- | --- |
| Cn1ncc2cc(-c3c[nH]c(C4COc5ccc(Oc6ccnc7c6CCC(=O)N7)cc5C4)n3)ccc21 (stereo not drawn) | false |
| CCCc1ccc2[nH]c(N3CCc4ccc(Oc5ccnc6c5CCC(=O)N6)cc4C3)nc2c1 | false |
| Cn1cnc2cc(-c3c[nH]c(C4COc5ccc(Oc6ccnc7c6CCC(=O)N7)cc5C4)n3)ccc21 (stereo not drawn) | false |
| CC(C)N1CCc2nc(C3COc4ccc(Oc5ccnc6c5CCC(=O)N6)cc4C3)[nH]c2C1 (stereo not drawn) | true |
| O=C(Nc1cc(Oc2ccc3c(c2)CC(c2nc(-c4ccccc4)c[nH]2)CO3)ccn1)C1CC1(F)F (stereo not drawn) | true |
| O=C(CN1CC(O)C1)Nc1cc(Oc2ccc3c(c2)CC(c2nc(-c4ccccc4)c[nH]2)CO3)ccn1 (stereo not drawn) | true |
| O=C1CCc2c(Oc3ccc4c(c3)CC(c3nc(-c5cncc(C(F)F)c5)c[nH]3)CO4)ccnc2N1 (stereo not drawn) | false |
| O=C1CCc2c(Oc3ccc4c(c3)CN(c3nc5cc(-c6ccccc6)ccc5[nH]3)CC4)ccnc2N1 | false |
| O=C1CCc2c(Oc3ccc4c(c3)CC(c3nc(-c5ccc(C(F)(F)F)nc5)c[nH]3)CO4)ccnc2N1 (stereo not drawn) | false |
| CC(C)(C)c1cc(-c2c[nH]c(C3COc4ccc(Oc5ccnc6c5CCC(=O)N6)cc4C3)n2)ccn1 (stereo not drawn) | false |
| O=C(Nc1cc(Oc2ccc3c(c2)CC(c2nc(-c4ccccc4)c[nH]2)CO3)ncn1)C1CC1 (stereo not drawn) | true |
| CC(=O)N1CCc2nc(C3COc4ccc(Oc5ccnc6c5CCC(=O)N6)cc4C3)[nH]c2C1 (stereo not drawn) | false |
| COc1ccsc1-c1c[nH]c(C2COc3ccc(Oc4ccnc5c4CCC(=O)N5)cc3C2)n1 (stereo not drawn) | true |
| CC(C)c1cc(-c2c[nH]c(C3COc4ccc(Oc5ccnc6c5CCC(=O)N6)cc4C3)n2)ccn1 (stereo not drawn) | false |
| CN1CCC(C(=O)Nc2cc(Oc3ccc4c(c3)CC(c3nc(-c5ccccc5)c[nH]3)CO4)ccn2)CC1 (stereo not drawn) | true |
| O=C(Cn1cncn1)Nc1cc(Oc2ccc3c(c2)CC(c2nc(-c4ccccc4)c[nH]2)CO3)ccn1 (stereo not drawn) | true |
| CC(C)(C)CCc1c[nH]c(C2COc3ccc(Oc4ccnc5c4CCC(=O)N5)cc3C2)n1 (stereo not drawn) | true |
| Cc1c[nH]c(-c2cc(Oc3ccc4c(c3)CC(c3nc(-c5ccccc5)c[nH]3)CO4)ccn2)n1 (stereo not drawn) | true |
| Cc1cc(-c2c[nH]c(C3COc4ccc(Oc5ccnc6c5CCC(=O)N6)cc4C3)n2)n(C)n1 (stereo not drawn) | false |
| O=C1CCc2c(Oc3ccc4c(c3)CC(c3nc(-c5cncc(C(F)(F)F)c5)c[nH]3)CO4)ccnc2N1 (stereo not drawn) | false |
| O=C(Nc1cc(Oc2ccc3c(c2)CC(c2nc(-c4ccccc4)c[nH]2)CO3)ccn1)C1CC(F)(F)C1 (stereo not drawn) | true |
| Cn1nc(C2CC2)cc1-c1c[nH]c(C2COc3ccc(Oc4ccnc5c4CCC(=O)N5)cc3C2)n1 (stereo not drawn) | false |
| O=C(Nc1cc(Oc2ccc3c(c2)CC(c2nc(-c4ccc(F)cc4)c[nH]2)CO3)ccn1)C1CC1 (stereo not drawn) | true |
| Cc1cc(-c2c[nH]c(C3COc4ccc(Oc5ccnc6c5CCC(=O)N6)cc4C3)n2)n(C2CC2)n1 (stereo not drawn) | true |
| O=C(CN1CCCC1)Nc1cc(Oc2ccc3c(c2)CC(c2nc(-c4ccccc4)c[nH]2)CO3)ccn1 (stereo not drawn) | true |
| CC(=O)Nc1cc(Oc2ccc3c(c2)CC(c2nc(-c4ccccc4)c[nH]2)CO3)ccn1 (stereo not drawn) | true |
| Cc1cc(-c2c[nH]c(C3COc4ccc(Oc5ccnc6c5CCC(=O)N6)cc4C3)n2)n(CC(F)(F)F)n1 (stereo not drawn) | false |
| Cc1cc(-c2c[nH]c(C3COc4ccc(Oc5ccnc6c5CCC(=O)N6)cc4C3)n2)n(C(C)C)n1 (stereo not drawn) | true |
| O=C1CCc2c(Oc3ccc4c(c3)CC(c3nc(-c5cccnc5C(F)(F)F)c[nH]3)CO4)ccnc2N1 (stereo not drawn) | false |
| Cc1cc(-c2c[nH]c(C3COc4ccc(Oc5ccnc6c5CCC(=O)N6)cc4C3)n2)ccn1 (stereo not drawn) | false |

* * *

assay: Plasma protein binding assay, human plasma (hPPB); assay type: in vitro ADME; details: 5 μM, equilibrium dialysis 4 hours 37° C.
hPPB (% free) overview

| MOLECULE | hPPB (% free) |
| --- | --- |
| O=C1CCc2c(Oc3ccc4c(c3)CC(c3nc(-c5cccc(F)c5)c[nH]3)CO4)ccnc2N1 (stereo not shown) | 0.2 |
| N#Cc1ccc2[nH]c(C3COc4ccc(Oc5ccnc6c5CCC(=O)N6)cc4C3)nc2c1 (stereo not shown) | 1.8 |
| c1ccc(-c2c[nH]c(C3COc4ccc(OC5CCOCC5)cc4C3)n2)cc1 (stereo not shown) | 0.5 |
| O=C1CCc2c(Oc3ccc4c(c3)CC(c3nc5cc(C(F)(F)F)ncc5[nH]3)CO4)ccnc2N1 (racemic) | 1.3 |

All values here come from patent US12304912B2.
